biological target: P70S6K (T412E mutant) (Homo sapiens (Human), UniProt P23443, T412E); test: P70S6K enzyme assay; format: biochemical; details: read-out: IC50 p70S6K
Sequence (P23443 whole entry T412E): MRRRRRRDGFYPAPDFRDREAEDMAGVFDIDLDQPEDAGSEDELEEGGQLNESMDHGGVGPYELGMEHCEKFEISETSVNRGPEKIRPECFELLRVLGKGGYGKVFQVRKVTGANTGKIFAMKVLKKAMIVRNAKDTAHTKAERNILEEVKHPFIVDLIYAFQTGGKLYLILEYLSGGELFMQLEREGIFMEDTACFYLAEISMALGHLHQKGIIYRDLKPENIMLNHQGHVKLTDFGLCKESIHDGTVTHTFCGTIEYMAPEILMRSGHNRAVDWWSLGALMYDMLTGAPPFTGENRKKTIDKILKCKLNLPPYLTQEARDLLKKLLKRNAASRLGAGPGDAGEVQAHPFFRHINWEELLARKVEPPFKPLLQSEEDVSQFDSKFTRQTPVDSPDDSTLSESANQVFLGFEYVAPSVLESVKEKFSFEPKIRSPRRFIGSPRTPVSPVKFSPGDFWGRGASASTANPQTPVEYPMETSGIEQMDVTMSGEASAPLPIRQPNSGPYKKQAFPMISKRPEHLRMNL
quantity.kind: IC50 (µM)

(a) Nc1cc(N2CCC(c3nc(-c4ccc(C(F)(F)F)cc4)cn3CCN3CCCC3)CC2)ncn1
(b) NC(=O)c1c(N)ncnc1N1CCC(c2nc(-c3ccnc(C4CC4)c3)cn2CCN2CCC2)CC1
(c) CCc1c(N)ncnc1N1CCC(c2nc(-c3ccc(C(F)(F)F)c(F)c3)cn2CCN2CCC(F)(F)CC2)CC1
(d) NC(=O)c1c(N)ncnc1N1CCC(c2nc(-c3ccoc3)cn2CCN2CCC2)CC1
# input Reorder the records above by IC50 so that values decrease. Reply format: the labels, ordered as requested.
# output a, d, c, b
(a: 0.36 µM, d: 0.046 µM, c: 0.0055 µM, b: 0.0037 µM)

----------
molecular target: P70S6K (T412E mutant) (Homo sapiens (Human), UniProt P23443, T412E); assay: P70S6K enzyme assay; format: biochemical; conditions: read-out: IC50 p70S6K
quantity.kind: IC50 (nM)

# annotated cases, reported IC50 shown
mol | subject.of.test | quantity.kind | meas.value
N#Cc1c(N)ncnc1N1CCC(c2nc(-c3ccc(F)c(F)c3)cn2CCN2CCC2)CC1 | P70S6K (T412E mutant) (Homo sapiens (Human), UniProt P23443, T412E) | IC50 | 1.6
Nc1ncnc(N2CCC(c3nc(-c4ccc(F)c(C(F)(F)F)c4)cn3CCN3CCCC3)CC2)c1C=O | P70S6K (T412E mutant) (Homo sapiens (Human), UniProt P23443, T412E) | IC50 | 0.6
CCc1c(N)ncnc1N1CCC(c2nc(-c3cccc(C(F)(F)F)n3)cn2CCN2CCC2)CC1 | P70S6K (T412E mutant) (Homo sapiens (Human), UniProt P23443, T412E) | IC50 | 25
Cc1cc(-c2cn(CC3CNC3)c(C3CCN(c4ncnc(N)c4C#N)CC3)n2)ccc1F | P70S6K (T412E mutant) (Homo sapiens (Human), UniProt P23443, T412E) | IC50 | 7.4
CC(C)(C)NCCn1cc(-c2ccc(F)c(C(F)(F)F)c2)nc1C1CCN(c2ncnc(N)c2C(N)=O)CC1 | P70S6K (T412E mutant) (Homo sapiens (Human), UniProt P23443, T412E) | IC50 | 2

(P) CCN(CCn1cc(-c2ccc(F)c(C)c2)nc1C1CCN(c2ncnc(N)c2C#N)CC1)C(C)C
(Q) Cn1cc(-c2ccc(F)c(C(F)(F)F)c2)nc1C1CCN(c2ncnc(N)c2-c2ccc(N3CCNCC3)nc2)CC1
(R) COc1ccc(-c2cn(CCN3CCC3)c(C3CCN(c4ncnc(N)c4C#N)CC3)n2)cc1F
(S) COc1ccc(-c2cn(CCN3CCC3)c(C3CCN(c4ncnc(N)c4C#N)CC3)n2)cc1Cl
(T) CCOc1c(N)ncnc1N1CCC(c2nc(-c3ccc(F)c(C)c3)cn2CCN(C)C)CC1
# input Thanks in advance: please rank these 5 entries by IC50, highest to lowest. Lab note: record answer as labels in requested order.
# output Q, S, P, R, T

----------
biological target: His-AKT (Full Length) (Homo sapiens (Human), UniProt P31749); assay: AKT enzyme assay; format: biochemical; settings: read-out: IC50 AKT
Sequence (P31749 whole entry): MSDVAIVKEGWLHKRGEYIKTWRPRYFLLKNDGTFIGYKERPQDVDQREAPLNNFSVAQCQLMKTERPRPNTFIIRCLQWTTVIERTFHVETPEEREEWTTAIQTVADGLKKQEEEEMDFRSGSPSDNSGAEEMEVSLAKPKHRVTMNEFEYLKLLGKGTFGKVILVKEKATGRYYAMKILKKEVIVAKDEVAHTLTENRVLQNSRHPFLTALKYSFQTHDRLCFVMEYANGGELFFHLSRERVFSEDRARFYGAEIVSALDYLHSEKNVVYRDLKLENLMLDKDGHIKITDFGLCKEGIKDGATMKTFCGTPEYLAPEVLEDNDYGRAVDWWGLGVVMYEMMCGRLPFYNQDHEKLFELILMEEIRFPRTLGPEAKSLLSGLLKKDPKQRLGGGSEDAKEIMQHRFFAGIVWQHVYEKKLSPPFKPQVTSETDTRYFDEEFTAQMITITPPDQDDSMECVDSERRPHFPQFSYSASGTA
quantity.kind: IC50 (nM)

Worked cases, IC50 given:
molecule | IC50 (nM)
Nc1ncnc(N2CCC(c3nc(-c4ccc(F)c(C(F)(F)F)c4)cn3CCN3CCCCC3)CC2)c1-c1ccccc1F [Compound 63] | 130
NC(=O)c1c(N)ncnc1N1CCC(c2nc(-c3ccc(F)c(F)c3)cn2CCN2CCC2)CC1 [Compound 328] | 140
CCc1c(N)ncnc1N1CCC(c2nc(-c3cncc(Cl)c3)cn2CCN2CCC2)CC1 [Compound 101] | 31
Nc1ncnc(N2CCC(c3nc(-c4ccc(F)c(C(F)(F)F)c4)c[nH]3)CC2)c1-c1ccc(F)cc1 [Compound 44] | 9500
Cc1ccc(-c2c(N)ncnc2N2CCC(c3nc(-c4ccc(F)c(C(F)(F)F)c4)cn3C)CC2)s1 [Compound 20] | 2700

(I) CCc1c(N)ncnc1N1CCC(c2nc(-c3cnc(N(C)C)nc3)cn2CCN2CCC2)CC1 [Compound 352]
(II) CCOc1c(N)ncnc1N1CCC(c2nc(-c3ccc(F)c(C)c3)cn2CCN(C)C)CC1 [Compound 293]
# input # argmax over IC50 for candidates I and II Record your answer as the label of the chosen record.
# output I

(a) COc1cc(-c2cn(CCN3CCC3)c(C3CCN(c4ncnc(N)c4C#N)CC3)n2)ccc1F [Compound 120]
(b) Nc1ncnc(N2CCC(c3nc(-c4ccc(C(F)(F)F)c(F)c4)cn3CCN3CCCC3)CC2)c1Cl [Compound 235]
(c) Nc1ncnc(N2CCC(c3nc(-c4ccc(F)c(C(F)(F)F)c4)cn3CCN3CCC3)CC2)c1-c1cnoc1 [Compound 109]
# input Ascending by IC50, please. // rank by listing labels in the order requested
# output c, a, b
(c: 1.6 nM, a: 2.4 nM, b: 1000 nM)

----------
target: P70S6K (T412E mutant) (Homo sapiens (Human), UniProt P23443, T412E); test: P70S6K enzyme assay; format: biochemical; conditions: read-out: IC50 p70S6K
pIC50: −log10 of the molar value.
quantity.kind: pIC50

Below are worked cases with known answers.
mol | pIC50
Cn1cc(-c2ccc(F)c(C(F)(F)F)c2)nc1C1CCN(c2ncncc2Br)CC1 | 8.52
Cc1c(N)ncnc1N1CCC(c2nc(-c3ccc(F)c(C(F)(F)F)c3)cn2CCN2CCCC2)CC1 | 8.21
C=C(C)c1c(N)ncnc1N1CCC(c2nc(-c3ccc(F)c(C(F)(F)F)c3)cn2CCN2CCCC2)CC1 | 8.10

(A) CS(=O)(=O)c1cccc(-c2cn(CCN3CCC3)c(C3CCN(c4ncnc(N)c4C#N)CC3)n2)c1
(B) CNCCn1cc(-c2ccc(F)c(C)c2)nc1C1CCN(c2ncnc(N)c2-c2cn[nH]c2)CC1
(C) CN(C)CCn1cc(-c2ccc(F)c(C(F)(F)F)c2)nc1C1CCN(c2ncnc(N)c2C2=CCCC2)CC1
# input Order by pIC50, ascending. Ranked list of labels, please, in the requested order.
# output A, B, C

----------
Target: P70S6K (T412E mutant) (Homo sapiens (Human), UniProt P23443, T412E)
Assay: P70S6K enzyme assay
Type: biochemical
Settings: read-out: IC50 p70S6K
Experimental: P70S6K inhibitor compounds are diluted and plated in 96 well plates. […] The reaction is incubated for 90 min at 25° C., before the addition of 10 mM EDTA to stop the reaction. The proportion of substrate and product (phosphorylated) peptide is analysed on a Caliper Life Sciences Lab Chip 3000, using a pressure of −1.4 psi, and upstream and downstream voltages of −3000 and −700 respectively. Product peaks are resolved before substrate peaks on the resulting chromatograms.
quantity.kind: IC50 (nM)

compound | IC50 [nM]
Nc1ncnc(N2CCC(c3nc(-c4ccc(C(F)(F)F)c(F)c4)cn3CCN3CCCC3)CC2)c1C1CCC1 [Compound 258] | 36

(I) N#Cc1c(N)ncnc1N1CCC(c2nc(-c3ccccc3F)cn2CCN2CCC2)CC1
(II) CCc1c(N)ncnc1N1CCC(c2nc(-c3ccc(F)c(F)c3)cn2CCN2CCC23COC3)CC1
(III) Nc1ncnc(N2CCC(c3nc(-c4ccc(F)c(C(F)(F)F)c4)cn3CCN3CCC3)CC2)c1-c1cnoc1
# input Put the entries in order of IC50, starting with the largest number. Sort and list the labels as requested.
# output II, I, III

----------
biological target: P70S6K (T412E mutant) (Homo sapiens (Human), UniProt P23443, T412E); experiment: P70S6K enzyme assay; type: biochemical; conditions: read-out: IC50 p70S6K
pIC50: −log10 of the molar value.
quantity.kind: pIC50

mol | meas.value
NC(=O)c1c(N)ncnc1N1CCC(c2nc(-c3ccc(F)c(C(F)(F)F)c3)cn2C[C@@H]2CCN2)CC1 | 8.00
Cc1cc(-c2cn(CCN3CCCC3)c(C3CCN(c4ncnc(N)c4C(N)=O)CC3)n2)ccc1F | 8.64
Cc1ncc(-c2c(N)ncnc2N2CCC(c3nc(-c4ccc(F)c(C(F)(F)F)c4)cn3C)CC2)s1 | 8.68
C=Cc1c(N)ncnc1N1CCC(c2nc(-c3cccc(F)c3)cn2CCN2CCCC2)CC1 | 9.05
N#Cc1c(N)ncnc1N1CCC(c2nc(-c3ccc(F)c(C(F)(F)F)c3)cn2C[C@@H]2CCN2)CC1 | 8.42

(A) COC/C=C/c1c(N)ncnc1N1CCC(c2nc(-c3ccc(F)c(C(F)(F)F)c3)cn2C)CC1
(B) CC(C)c1cc(-c2cn(CCN3CCC3)c(C3CCN(c4ncnc(N)c4Cl)CC3)n2)ccn1
# input Hello, I am sorting some records. Could you say if A or B has the smaller pIC50 value? Lab note: record the label of whichever item you select.
# output A
